Source: patent US20240400708A1

molecular target: feline FcRn complex (FcRn-α subunit and β-microglobulin), biotin labeled (feline); assay: SPR, pH 7.4
Catalogue of pKd readings, one per entry.
Please note pKd is a logarithmic value: minus log10 of concentration in mol/L. Answer with that number alone.

feline IgG1a S428Y/L314K (antibody, part only; not given: Variable domains, not shown: another chain or arm of the molecule) constant: ASTTAPSVFPLAPSCGTTSGATVALACLVLGYFPEPVTVSWNSGALTSGVHTFPAVLQASGLYSLSSMVTVPSSRWLSDTFTCNVAHPPSNTKVDKTVRKTDHPPGPKPCDCPKCPPPEMLGGPSIFIFPPKPKDTLSISRTPEVTCLVVDLGPDDSDVQITWFVDNTQVYTAKTSPREEQFNSTYRVVSVLPILHQDWKKGKEFKCKVNSKSLPSPIERTISKAKGQPHEPQVYVLPPAQEELSRNKVSVTCLIKSFHPPDIAVEWEITGQPEPENNYRTTPPQLDSDGTYFVYSKLSVDRSHWQRGNTYTCSVYHEALHSHHTQKSLTQSPGK = 5.73

Ask | Entry feline IgG1a Q311F (antibody, part only; not given: Variable domains, not shown: another chain or arm of the molecule) constant: ASTTAPSVFPLAPSCGTTSGATVALACLVLGYFPEPVTVSWNSGALTSGVHTFPAVLQASGLYSLSSMVTVPSSRWLSDTFTCNVAHPPSNTKVDKTVRKTDHPPGPKPCDCPKCPPPEMLGGPSIFIFPPKPKDTLSISRTPEVTCLVVDLGPDDSDVQITWFVDNTQVYTAKTSPREEQFNSTYRVVSVLPILHFDWLKGKEFKCKVNSKSLPSPIERTISKAKGQPHEPQVYVLPPAQEELSRNKVSVTCLIKSFHPPDIAVEWEITGQPEPENNYRTTPPQLDSDGTYFVYSKLSVDRSHWQRGNTYTCSVSHEALHSHHTQKSLTQSPGK has what pKd?
Reply | 5.86
